binders and their reported Max MFI
# test.target: T1, monkey GPC3 on HEK293T-monkey GPC3 cells (monkey)
# T1 construct: whole, on cells
# protocol.details: FACS on HEK293T-monkey GPC3 cells;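 note: flow cytometry binding of test antibodies to the cells, read as mean fluorescence intensity, with half-maximal concentration taken from fitted curves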
A number alone suffices; assume MFI.

binder	Max MFI / MFI
F3.81.19 (antibody, human IgG1, kappa, V domains shown, Human-murine chimeric antibody) VH: QVQLQQSGAELVRPGASVKLSCKASGYTFTDYEMHWVKQTPVHGLEWIGTIDPETGNTAYNQKFKGKATLTADKSSSTAYMELRSLTSEDSAVYYCTRPYSLTYWGQGTLVTVSA VL: DVLLTQTPLSLPVSLGDQASISCRSSQSFVHSNGDTYLQWYLQKPGQSPKLLIYKVSNRFSGVPDRFSGSGSGTDFTLKISRVEAEDLGVYYCFQGSHVPYTFGSGTKLEIKR	106000
F1.145.22 (antibody, human IgG1, kappa, V domains shown, Human-murine chimeric antibody) VH: QVQLQQSGTDLARPGASVKLSCKASGYTFTSFGISWVKQRTGQGLEWIGEIYPRSGSPYYNEKFTGKATLTADKSSSTAYMELRSLTSEDSAVYFCAKDFGSSYVFDYWGQGTALTVSS VL: DIQMTQSPASLSASVGETVTITCRASENIYSYLTWYQQKQGKSPQLLVYNAKTLAEGVPSRFSGSGSGTQFSLKINSLQPEDFGTYYCQHHYGTPPTFGTGTKLDLKR	6050
F1.2.14 (antibody, human IgG1, kappa, V domains shown, Human-murine chimeric antibody) VH: RVQLQQSGAELVKPGASVRMSCKASGYTFTAYSIEWMKQNLGKSLEWIGNFRPYNDDTKYNENFKGRATLTVEKSSATVYLELSRLTSDDSAVYYCARSGPTDYFDYWGQGTTLIVSS VL: DIQMTQSPASLSASVGETVTITCRASDNIYSYLAWYQQKQGQSPQLLVYNAKTLAEGVPSRFSGSGSVTQFSLKIISLQPEDFGTYYCQHHFGTPRTFGGGTKLEIKR	4740
F3.54.12 (antibody, human IgG1, kappa, V domains shown, Human-murine chimeric antibody) VH: QVQLQQSGAELVRPGASVKLSCKASGYTFTDYEMHWVKQTPVHGLEWIGAIDPETGNTAYIQKFKGKATLTTDKSSSTAYMELRSLTSEDSAVYYCTRFYSYSHWGQGTTLTVSS VL: DVVMTQTPLSLPVSLGDQASISCRSSQSLVHSNGNTYLHWYLQKPGQSPKLLIYKVSNRFSGVPDRFSGSSSGTDFTLKISRVEAEDLGVYFCSQNTHVPPTFGGGTKLEIKR	115000

Next, consider the following binder.
Recorded result, F4.21.16 (antibody, human IgG1, kappa, V domains shown, Human-murine chimeric antibody) VH: DVQLQESGPGLVKPSQSLSLTCSVTGYSITSGYYWNWIRQFPGNKLEWMGYISYDVTVNYNPSLKNRISITRDTSKNQFFLKLNSVTTEDTATYYCATITSVASMDHWGQGTSVTVSS VL: DILMTQTPLSLPVSLGDQASISCRSSQNIVHRNGNTYLEWYLQKPGQSPKLLLYKVSNRFSGVPDRFSGSGSGTDFTLKISRVEAEDLGIYYCFQGSHFPFTFGSGTKLEIKR , Max MFI: 50900
